biological target: PCBP2 KH1/2 (human, UniProt Q15366 1-168); assay: ITC
Sequence (Q15366 1-168): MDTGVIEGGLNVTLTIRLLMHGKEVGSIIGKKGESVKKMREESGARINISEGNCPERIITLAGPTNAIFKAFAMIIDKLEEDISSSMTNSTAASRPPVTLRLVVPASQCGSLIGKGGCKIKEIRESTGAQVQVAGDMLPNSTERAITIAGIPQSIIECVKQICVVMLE
endpoint label: Kd (µM)
Answers are plain numbers, in µM.

Lab note: measured Kd of GCUCUGGGGUUGUACCCACCCCAGAGC (structured_RNA) [PV stem-loop B] was 22.9
